- Assay Procedure: FRG1 expression reporter modulators in myotubes – cell-based, C2C12 myotubes, firefly/Renilla luciferase, luminescence, FRG1 inhibition for FSHD, primary screen (AID 1084)
- Assay Setup: FRG1 promoter luciferase, higher = more signal, called active from +8 up or from −8 down
Result Type: z-score
Answer with the value's number alone.

Below, 10 compounds whose answers are already recorded.
>  <Compound>
C[C@@]1([C@@H](NC(=O)c2cccs2)c2ccc(-c3ccccc3)cc2)C[C@H]1C1CCCCC1

>  <z-score>
2.66

$$$$
>  <Compound>
[N-]=[N+]=NCc1ccccc1C[C@]1(C(=O)NCCN2CCOCC2)COC(c2ccc(OCCCO)cc2)=N1

>  <z-score>
-2.23

$$$$
>  <Compound>
O=C1N(CCS(=O)(=O)c2ccccc2)Cc2ccccc2C[C@@]12COC(c1ccc(OCCCO)cc1)=N2

>  <z-score>
0.0674

$$$$
>  <Compound>
CC(C)C(CO)N1C(=O)[C@@H]2[C@H]3C(=O)OCC=C[C@H]3OC23C=CCN(CCN2CCOCC2)C(=O)[C@@H]13 (some centres undefined)

>  <z-score>
-0.0357

$$$$
>  <Compound>
COC(=O)c1ccc(OC)c(/C=C\CC(CCc2ccccc2)OC(=O)c2ccncc2)c1 (centres undefined)

>  <z-score>
-2.63

$$$$
>  <Compound>
COCCOC(=O)N1C(=O)[C@@]2(c3cc(C#CC4(O)CCCCCC4)ccc31)[C@H](C(=O)N1CCN(c3ncccn3)CC1)[C@H]1C(=O)O[C@H](c3ccccc3)[C@H](c3ccccc3)N1[C@@H]2c1ccc(O)cc1

>  <z-score>
-0.617

$$$$
>  <Compound>
O=C(CS)NCCCCCNC(=O)[C@@H]1C[C@@H]2C(=O)N3CCC[C@H]3C(=O)N2[C@@H]1c1ccc(O)cc1

>  <z-score>
0.0995

$$$$
>  <Compound>
Cc1ccc(S[C@]2(C(=O)NCC(C)C)CC(=O)N(C3CCCCC3)[C@@H]2c2ccc(CO)cc2I)cc1

>  <z-score>
-2.29

$$$$
>  <Compound>
C=C(COC)/C(=C/C[C@@H](OC(=O)c1ccncc1)c1cccc(OCCO)c1)c1cc(C(=O)OC)ccc1OC

>  <z-score>
-3.79

$$$$
>  <Compound>
COC(=O)C(CC#Cc1ccc2c(c1)[C@]1(C(=O)N2)[C@H](C(=O)N2CCc3cc(OC)c(OC)cc3C2)[C@H]2C(=O)O[C@H](c3ccccc3)[C@H](c3ccccc3)N2[C@@H]1c1ccc(O)cc1)C(=O)OC

>  <z-score>
1.77

$$$$

Any idea what z-score was measured for COCCCNC(=O)[C@@]1(Cc2ccccc2CN=[N+]=[N-])N=C(c2ccc(OCCCO)cc2)O[C@H]1c1ccccc1N=[N+]=[N-] ?
-1.21

Any idea what z-score was measured for CO[C@H]1O[C@H](CO)[C@@H](OC(=O)c2ccc(Br)cc2)[C@@H]2OC(=O)[C@H](Cc3cccc(Br)c3)C/C=C/C[C@@H](Cc3cccc(Br)c3)C(=O)O[C@@H]12 ?
0.374

Any idea what z-score was measured for COCCOC(=O)N1C(=O)[C@@]2(c3cc(C#CCNC(N)=O)ccc31)[C@H](C(N)=O)[C@H]1C(=O)O[C@H](c3ccccc3)[C@H](c3ccccc3)N1[C@@H]2c1ccc(OCCO)cc1 ?
1.34

Any idea what z-score was measured for C=C(/C(=C/C[C@@H](OC(C)=O)c1ccccc1OCCO)c1cnc2ccccc2c1)C(C)C ?
-0.698

---

# z-score listing for each entry below
- Assay Procedure: optical density change of DRC41 E. coli – strain DRC41, OD650, 24 h, E. coli filamentation project, primary screen (AID 1093);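 note: MC1000 strain lacking acrAB efflux and sulA so SOS filamentation is blocked; test concentration not given here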
- Assay Setup: E. coli DRC41 growth, higher = more signal, called active from +8 up or from −8 down
Answer with the value's number alone.

Below, 5 compounds whose answers are already recorded.
>  <Compound>
COc1ccc([Si](C)(C)[C@@H]2[C@@H](CC(=O)N(CCO)Cc3ccccc3)O[C@]3(C(=O)N(Cc4ccc(N5CCOC5=O)cc4)c4ccccc43)[C@H]2C)cc1

>  <z-score>
-0.249

$$$$
>  <Compound>
Cc1ccc(S[C@]2(C(=O)O)CC(=O)N(Cc3ccccc3C(F)(F)F)[C@@H]2c2ccc(CO)cc2)cc1

>  <z-score>
0.301

$$$$
>  <Compound>
CN(C)C(=O)[C@]1(Cc2ccccc2N=[N+]=[N-])N=C(c2ccc(OCCCO)cc2)O[C@@H]1c1ccccc1CN=[N+]=[N-]

>  <z-score>
0.35

$$$$
>  <Compound>
CC(C)C[C@H]1NC(=O)[C@H](C)NC(=O)[C@@]23C(=O)N[C@@H](Cc4ccccc4)C2[C@H](C)[C@@]2(C)O[C@H]2C3/C=C/C/C=C\CNC1=O (stereo not given in full)

>  <z-score>
-0.847

$$$$
>  <Compound>
O=c1c2ccc(Br)cc2nc(-c2ccccc2)n1Cc1cccc(O)c1

>  <z-score>
1.38

$$$$

Any idea what z-score was measured for COC(=O)c1c(CC[C@@H](CO)NC(=O)N[C@@H](C)Cn2cc(C3(O)CCCC3)nn2)oc(C(C)=O)c1C(=O)OC ?
-0.159

Any idea what z-score was measured for [N-]=[N+]=NCc1ccccc1[C@H]1OC(c2ccc(OCCCO)cc2)=N[C@@]1(Cc1ccccc1)C(N)=O ?
0.369

Any idea what z-score was measured for CCCCC=C[C@@H](NC(=O)CCc1ccccc1)c1ccccc1 ?
-1.52

Any idea what z-score was measured for CN1C(=O)C2C=CC(C(O)C3CCCCC3)N(N(c3ccccc3)c3ccccc3)C2C1=O (stereo not given) ?
-0.989

Any idea what z-score was measured for COC(=O)c1ccc(OC)c(/C=C\CC(CCc2ccccc2)OC(C)=O)c1 (stereo not given) ?
-0.031

Any idea what z-score was measured for CO[C@H]1O[C@H](CO)[C@@H](OC(=O)c2ccc(Br)cc2)[C@@H]2OC(=O)[C@H](Cc3cccc(Br)c3)C/C=C/C[C@@H](Cc3cccc(Br)c3)C(=O)O[C@@H]12 ?
-0.972

Any idea what z-score was measured for COc1cccc(C)c1NC(=O)O[C@H]1[C@H](OC(=O)Nc2ccccc2)[C@H](OC(=O)Nc2ccccc2)[C@@H](OC)O[C@@H]1CO ?
-0.721

Any idea what z-score was measured for C[C@@H]1ON(c2ccccc2)[C@H](c2ccccc2)[C@H]1C(=O)N1C(=O)OC[C@H]1Cc1ccccc1 ?
0.547

Any idea what z-score was measured for Cc1ccccc1C(O)C1C=CC2C(=O)N(C)C(=O)C2N1Nc1ccc([N+](=O)[O-])cc1[N+](=O)[O-] (stereo not given) ?
-1.24

Any idea what z-score was measured for CN(C)CCCNC(=O)[C@@]1(Cc2ccccc2I)c2ccccc2C(=O)N(Cc2ccccc2Cl)[C@H]1c1ccc(CO)cc1 ?
-1.7

---

- Assay Procedure: S6 kinase pathway phospho-S6 level changes – cell-based, A549, cytoblot, luminescence, serum-stimulated, primary screen (AID 1158);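 note: serum-stimulated A549 lung adenocarcinoma cells; signal is phosphorylated S6 detected by cytoblot immunostaining with HRP secondary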
- Assay Setup: 5 h, higher = more signal
# z-score listing for each entry below
Answer with the value's number alone.

Below, 6 compounds whose answers are already recorded.
>  <Compound>
CN1C(=O)C2C=CC(C(O)C3CCCCC3)N(N(c3ccccc3)c3ccccc3)C2C1=O (configuration not stated)

>  <Result Type>
z-score

>  <Assay Value>
-1.47

$$$$
>  <Compound>
COc1ccc([Si](C)(C)[C@H]2[C@H](CC(=O)N3CCC[C@H]3CO)O[C@@]3(C(=O)N(Cc4ccc(N5C(=O)c6cccc7cccc5c67)cc4)c4ccccc43)[C@@H]2C)cc1

>  <Result Type>
z-score

>  <Assay Value>
0.298

$$$$
>  <Compound>
CN(C)CCCCCCNC(=O)[C@@H]1C[C@@H]2C(=O)NCC(=O)N2[C@@H]1c1ccc(O)cc1

>  <Result Type>
z-score

>  <Assay Value>
-0.341

$$$$
>  <Compound>
CN(C)C(=O)[C@]1(Cc2ccccc2N=[N+]=[N-])N=C(c2ccc(OCCCO)cc2)O[C@@H]1c1ccccc1CN=[N+]=[N-]

>  <Result Type>
z-score

>  <Assay Value>
0.915

$$$$
>  <Compound>
CCOC(=O)C[C@H]1[C@H](OC(=O)c2ccc(C(=O)c3ccccc3)cc2)[C@@H](NC(=O)C2CCCCC2)c2cc(OCCCO)ccc2N1C(=O)Cc1ccc(OC)cc1

>  <Result Type>
z-score

>  <Assay Value>
0.0093

$$$$
>  <Compound>
Cc1ccc(C(C)CC(O)C2C=CC3C(=O)N(Cc4ccccc4)C(=O)C3N2n2cnnc2)o1 (configuration not stated)

>  <Result Type>
z-score

>  <Assay Value>
-0.63

$$$$

Any idea what z-score was measured for CCCC=C(CCC)[C@@H](NC(=O)Cc1ccccc1)c1ccc(C(=O)OC)cc1 ?
-0.504

---

- Assay Procedure: small molecules captured by biotinylated probe aFGF2 – biochemical, small-molecule microarray, fluorescence 635/667, stem cell growth factor project, primary screen (AID 1067);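 note: measures binding of biotinylated aFGF2 protein to printed compounds on slides; z-score merges feature fluorescence and signal-to-noise across triplicate slides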
- Assay Setup: higher = more signal
Result Type: composite z-score

Any idea what composite z-score was measured for O=C1NC(=O)C2C1C=CC(C(O)c1ccc(-c3ccccc3)s1)N2Nc1ccccn1 (stereo not drawn) ?
-0.0605

Any idea what composite z-score was measured for NC(=O)NCC#Cc1ccc2c(c1)[C@]1(C(=O)N2)[C@H](c2ccc(OCCO)cc2)N2[C@H](c3ccccc3)[C@H](c3ccccc3)OC(=O)[C@H]2[C@@H]1C(=O)N1CCN(c2ncccn2)CC1 ?
-0.0767

Any idea what composite z-score was measured for C[N+](C)(C)CCCC[C@@H]1NC(=O)[C@@H]2C[C@H](C(=O)NCCCCCNC(=O)CS)[C@H](c3cccc(OCCO)c3)N2C1=O ?
0.0402
